Experiment: HepG2 cell viability (CellTiter-Glo)
Assay type: cell-based
Details: human, HepG2 cells, 250 µM, read-out: Cell viability, Mean (n=3)
Reported Property: viability at 24 h, 250 µM (%)
Supply the numeric figure in %, leaving out any unit text.

Check the records and state viability at 24 h, 250 µM for CN(C)CCCN1c2ccccc2Sc2ccc(Cl)cc21 [chlorpromazine] 0

----------
As shown below, each of these molecules has a reported IC50 value.
Target: recombinant NgFabI protein (Neisseria gonorrhoeae, UniProt A0ACH0F547)
Sequence (A0ACH0F547 entry or part of it): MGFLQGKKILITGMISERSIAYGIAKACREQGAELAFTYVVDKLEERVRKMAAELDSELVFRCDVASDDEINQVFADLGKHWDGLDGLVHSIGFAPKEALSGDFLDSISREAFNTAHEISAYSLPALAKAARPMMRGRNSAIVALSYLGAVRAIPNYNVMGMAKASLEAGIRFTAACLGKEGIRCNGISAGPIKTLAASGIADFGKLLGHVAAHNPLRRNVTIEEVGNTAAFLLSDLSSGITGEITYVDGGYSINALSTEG
Experiment: biochemical

chemical_structure=Cc1c(CN(C)C(=O)/C=C/c2cnc3c(c2)N[C@@H](C)CC(=O)N3)oc2ccccc12 target_desc="recombinant NgFabI protein (Neisseria gonorrhoeae, UniProt A0ACH0F547)" reported_property=IC50 result="14 nM"
chemical_structure=Cc1c(CN(C)C(=O)/C=C/c2cnc3c(c2)N[C@H](C)[C@H](O)C(=O)N3)oc2ccccc12 target_desc="recombinant NgFabI protein (Neisseria gonorrhoeae, UniProt A0ACH0F547)" reported_property=IC50 result="0.6 nM"
chemical_structure=Cc1c(CN(C)C(=O)/C=C/c2cnc3c(c2)NCCC(=O)N3)oc2ccccc12 target_desc="recombinant NgFabI protein (Neisseria gonorrhoeae, UniProt A0ACH0F547)" reported_property=IC50 result="6 nM"

Then there is this molecule:
Supply recorded IC50 for `Cc1c(CN(C)C(=O)/C=C/c2cnc3c(c2)N[C@H](C)CC(=O)N3)oc2ccccc12` here. 2.4 nM
